test_target: Carbonic anhydrase 9 (Homo sapiens, UniProt Q16790)
property_name: Ki

CCCN(CCC)S(=O)(=O)c1ccc(C(=O)NC2CCC(C)CC2)cc1 (centres undefined) | 2020 nM
CCCN(CCC)S(=O)(=O)c1ccc(C(=O)Nc2ccccn2)cc1 | 199 nM
CCCN(CCC)S(=O)(=O)c1ccc(C(=O)Nc2ccccc2C)cc1 | 61.3 nM
CCCN(CCC)S(=O)(=O)c1ccc(C(=O)NCc2ccccc2)cc1 | 20.6 nM
